tested-system: Metabotropic glutamate receptor 2 (Rattus norvegicus)
assay-summary: Negative allosteric modulation of rat mGlu2R expressed in HEK293 cells co-expressing Galpha15 assessed as decrease in glutamate-induced calcium mobilization at 30 uM preincubated for 2.3 mins followed by glutamate addition and measured after 1.7 mins by Fluo-4-AM dye based fluorescence assay relative to control
Format: functional, cell-based
# Lookup of reported Emax keyed by entry
Entry rule: numbers only, all in %.

Sample records with Emax:
# sample-smiles, readout-units, Emax
data = [
    ("NC(=O)c1cc(-c2ccc(F)cc2F)n2nc(COc3ccnc(C(F)(F)F)c3)cc2n1", "%", 1.5),
    ("NC(=O)c1cc(-c2ccc(F)cc2)n2nc(CCc3cccnc3)cc2n1", "%", 2.9),
    ("COc1ccc(-c2cc(C(N)=O)nc3cc(COc4ccnc(C(F)(F)F)c4)nn23)c(F)c1", "%", 2.1),
]

q: Recorded Emax of NC(=O)c1cc(-c2ccc(F)cc2)n2nc(COc3ccnc(C(F)(F)F)c3)cc2n1 , please.
a: 2.4

q: Recorded Emax of COc1ccc(-c2cc(C(N)=O)nc3cc(COc4cnc(C)nc4)sc23)c(F)c1 , please.
a: 2.7

q: Recorded Emax of NC(=O)c1cc(-c2ccc(F)cc2)c2sc(COc3ccnc(C(F)(F)F)c3)cc2n1 , please.
a: 2.3

q: Recorded Emax of COc1ccc(-c2cc(C(N)=O)nc3cc(COc4ccnc(C)c4)nn23)c(F)c1 , please.
a: 35.4

q: Recorded Emax of NC(=O)c1cc(-c2ccc(F)cc2)n2nc(CCc3ccnc(C(F)(F)F)c3)cc2n1 , please.
a: 2.3
